Catalogue of compounds with associated log10 IC50
# Tested on: WiDr
# method description: Cytotoxicity in WiDr cells expressing surface-tethered carboxypeptidase G2 (CPG2)
# Format: functional, cell-based
# cond: Homo sapiens
experimental endpoint: log10 IC50 (log10 of the value in nM)

* O=C(O)CC[C@H](NC(=O)Nc1ccc(COC(=O)Nc2ccc(N(CCBr)CCBr)cc2)cc1)C(=O)O | 3.49
* CN(C(=O)OCc1ccc(OC(=O)N[C@@H](CCC(=O)O)C(=O)O)cc1)c1ccc(N(CCCl)CCCl)cc1 | 3.23
* O=C(O)CC[C@H](NC(=O)Oc1ccc(COC(=O)Nc2ccc(N(CCI)CCI)cc2)cc1)C(=O)O | 3.11
* CN(C(=O)OCc1ccc(NC(=O)N[C@@H](CCC(=O)O)C(=O)O)cc1)c1ccc(N(CCCl)CCCl)cc1 | 3.40
* O=C(O)CC[C@H](NC(=O)Nc1ccc(COC(=O)Nc2ccc(N(CCI)CCI)cc2)cc1)C(=O)O | 3.26
* O=C(O)CC[C@H](NC(=O)Oc1ccc(COC(=O)Nc2ccccc2N(CCCl)CCCl)cc1)C(=O)O | 4.45
* CN(C(=O)OCc1ccc(OC(=O)N[C@@H](CCC(=O)O)C(=O)O)cc1)c1ccc(N(CCI)CCI)cc1 | 3.41
* O=C(O)CC[C@H](NC(=O)Oc1ccc(COC(=O)Nc2ccccc2N(CCI)CCI)cc1)C(=O)O | 4.28
